Recorded measurements of melting point, one per entry

Known melting point results, listed for orientation:
CCOC(=O)c1ccc(NC(=O)c2ccc(OCCCCc3ccccc3)cc2)c(O)c1	156 to 158 °C
CCOC(=O)c1cc2cc(NC(C)C)ccc2nn1	167 to 168 °C
Nc1ccccc1C(=O)c1ccc(Br)cc1	104 to 106 °C

Next:
Entry Cc1cc(O)nc(SCC(CS(=O)(=O)c2ccc(-c3ccc(Cl)cc3)cc2)C(=O)O)n1 (stereo not given) has what melting point?
165 to 168 °C

* * *

Recorded measurements of melting point, one per entry

Known melting point results, listed for orientation:
COC(=O)c1cc(Cn2cncc2C)cc(C(C)(C)C#N)c1	101 to 104 °C
CCOC(=O)Cc1ccc2c(c1)C(=O)c1ccccc1CN2	98 to 100 °C

Entry CC(=O)c1ccc2c(c1)ncn2-c1cccc(C(=O)OC2CCN(C)CC2)c1 has what melting point?
106 to 107 °C

Similarly, COc1cc(OC)nc(NC(=O)NS(=O)(=O)c2ccccc2C(C)=O)n1 ?
126 to 128 °C

Similarly, CC12CCC(=O)C=C1CCN(Cc1ccccc1)C2 (stereo not given) ?
98 °C

Cited source: a melting point compilation (Tetko et al.; mined from patent text by program, amines drawn as free bases though some values may be those of a salt)
